# System: CT26
# method.notes: Antiproliferative activity against mouse CT26 cells harboring active Wnt/beta-catenin signal assessed as inhibition of cell proliferation by CCK8 assay
pIC50: −log10 of the molar value.
pIC50 of 5 or higher: t. Under 5: f.

See these solved cases before continuing.
INSERT INTO measurements (smiles_code, assayed_target, category_label) VALUES
  ('COc1ccc(-c2oc3c(-c4ccc(F)c(F)c4)c(OC)cc(OC)c3c(=O)c2OC)cc1OC', 'CT26', 'f'),
  ('Cc1ccc(-c2c(O)cc(O)c3c(=O)c(O)c(-c4ccc(O)c(O)c4)oc23)cc1', 'CT26', 't'),
  ('COC(=O)c1ccc(-c2c(O)cc(O)c3c(=O)c(O)c(-c4ccc(O)c(O)c4)oc23)cc1', 'CT26', 'f'),
  ('COc1ccc(-c2oc3c(-c4ccncc4)c(OC)cc(OC)c3c(=O)c2OC)cc1OC', 'CT26', 'f');

Hello, I need to know if O=c1c(O)c(-c2ccc(O)c(O)c2)oc2c(-c3ccccc3)c(O)cc(O)c12 has measured pIC50 not below 5. Thanks!
t

---

# System: CT26
# method.notes: Antiproliferative activity against mouse CT26 cells harboring active Wnt/beta-catenin signal assessed as inhibition of cell proliferation by CCK8 assay
Form field: IC50 (one value per entry).
Provide the reading as a plain figure in µM.

Before answering, review these 8 worked examples.
INSERT INTO results (smiles_code, observed) VALUES
  ('COC(=O)c1ccc(-c2c(OC)cc(OC)c3c(=O)c(OC)c(-c4ccc(OC)c(OC)c4)oc23)cc1', 16),
  ('COc1ccc(-c2oc3c(Nc4ccccc4)c(OC)cc(OC)c3c(=O)c2OC)cc1OC', 2.49),
  ('COc1ccc(-c2oc3c(-c4ccc(F)cc4)c(OC)cc(OC)c3c(=O)c2OC)cc1OC', 19.8),
  ('O=c1c(O)c(-c2ccc(O)c(O)c2)oc2c(-c3ccc(F)c(F)c3)c(O)cc(O)c12', 7.1),
  ('COc1ccc(-c2oc3c(-c4ccc(C)cc4)c(OC)cc(OC)c3c(=O)c2OC)cc1OC', 11.4),
  ('COc1ccc(-c2oc3c(-c4ccc(C(F)(F)F)cc4)c(OC)cc(OC)c3c(=O)c2OC)cc1OC', 16.2),
  ('COc1ccc(-c2oc3c(-c4ccccc4)c(OC)cc(OC)c3c(=O)c2OC)cc1OC', 15.1),
  ('COc1ccc(-c2oc3c(-c4ccc(C(=O)O)cc4)c(OC)cc(OC)c3c(=O)c2OC)cc1OC', 14.1);

Name the reported IC50 value associated with the compound COc1ccc(-c2c(OC)cc(OC)c3c(=O)c(OC)c(-c4ccc(OC)c(OC)c4)oc23)cc1
27.8

Look at this compound and give its reported IC50. O=c1c(O)c(-c2ccc(O)c(O)c2)oc2c(-c3ccc(F)cc3)c(O)cc(O)c12
3.32

What value of IC50 has been reported for the following compound? COc1ccc(-c2oc3c(C4=CCNCC4)c(OC)cc(OC)c3c(=O)c2OC)cc1OC
12.9

Find the recorded IC50 belonging to COc1ccc(-c2oc3c(C4CC4)c(OC)cc(OC)c3c(=O)c2OC)cc1OC and report it.
3.39

---

# assayed.target: beta-catenin-B-cell lymphoma 9 protein complex (Homo sapiens, UniProt P35222)
# method.notes: Inhibition of full length beta-catenin (unknown origin)/FAM labeled BCL9 (350 to 375 residues) (unknown origin) protein-protein interaction by competitive FP assay
pIC50: −log10 of the molar value.
Everything with pIC50 lower than 5 is -1; everything else, including exactly 5, is 1.

INSERT INTO assay_data (smiles_code, assayed_target, category_label) VALUES
  ('COc1ccc(-c2oc3c(C4CC4)c(OC)cc(OC)c3c(=O)c2OC)cc1OC', 'beta-catenin-B-cell lymphoma 9 protein complex (Homo sapiens, UniProt P35222)', -1),
  ('COC(=O)c1ccc(-c2c(O)cc(O)c3c(=O)c(O)c(-c4ccc(O)c(O)c4)oc23)cc1', 'beta-catenin-B-cell lymphoma 9 protein complex (Homo sapiens, UniProt P35222)', 1),
  ('COc1ccc(-c2oc3c(-c4ccc(F)cc4)c(OC)cc(OC)c3c(=O)c2OC)cc1OC', 'beta-catenin-B-cell lymphoma 9 protein complex (Homo sapiens, UniProt P35222)', 1),
  ('O=c1c(O)c(-c2ccc(O)c(O)c2)oc2c(-c3ccc(F)cc3)c(O)cc(O)c12', 'beta-catenin-B-cell lymphoma 9 protein complex (Homo sapiens, UniProt P35222)', 1),
  ('COc1ccc(-c2oc3c(-c4ccc(C(=O)O)cc4)c(OC)cc(OC)c3c(=O)c2OC)cc1OC', 'beta-catenin-B-cell lymphoma 9 protein complex (Homo sapiens, UniProt P35222)', 1);

--- query ---
Hi team, for COc1ccc(-c2oc3c(-c4ccncc4)c(OC)cc(OC)c3c(=O)c2OC)cc1OC , is the recorded pIC50 at or above 5?
1

---

Entries and their measured pIC50 follow.
# assayed.target: beta-catenin-B-cell lymphoma 9 protein complex (Homo sapiens)
# Sequence (P35222 whole entry): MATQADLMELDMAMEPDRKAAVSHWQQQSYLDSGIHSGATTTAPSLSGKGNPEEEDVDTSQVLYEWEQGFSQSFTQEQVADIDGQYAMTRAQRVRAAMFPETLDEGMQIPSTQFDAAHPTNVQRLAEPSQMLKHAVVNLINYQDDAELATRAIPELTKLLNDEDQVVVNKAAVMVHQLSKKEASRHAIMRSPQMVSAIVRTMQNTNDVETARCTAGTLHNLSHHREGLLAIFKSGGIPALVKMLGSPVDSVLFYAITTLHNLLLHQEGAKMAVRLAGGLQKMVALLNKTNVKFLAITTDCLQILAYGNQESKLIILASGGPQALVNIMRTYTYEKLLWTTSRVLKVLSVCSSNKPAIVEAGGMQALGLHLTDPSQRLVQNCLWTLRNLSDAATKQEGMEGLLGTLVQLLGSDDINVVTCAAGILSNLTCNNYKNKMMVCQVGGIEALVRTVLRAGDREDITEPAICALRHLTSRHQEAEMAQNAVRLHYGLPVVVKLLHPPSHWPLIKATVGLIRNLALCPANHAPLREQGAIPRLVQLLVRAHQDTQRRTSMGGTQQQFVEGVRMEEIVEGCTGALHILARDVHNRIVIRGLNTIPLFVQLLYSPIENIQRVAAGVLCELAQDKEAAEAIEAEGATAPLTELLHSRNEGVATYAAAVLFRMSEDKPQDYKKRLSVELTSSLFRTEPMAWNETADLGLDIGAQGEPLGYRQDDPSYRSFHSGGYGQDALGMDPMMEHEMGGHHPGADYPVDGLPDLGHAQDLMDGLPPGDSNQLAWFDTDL
# Sequence (O00512 whole entry): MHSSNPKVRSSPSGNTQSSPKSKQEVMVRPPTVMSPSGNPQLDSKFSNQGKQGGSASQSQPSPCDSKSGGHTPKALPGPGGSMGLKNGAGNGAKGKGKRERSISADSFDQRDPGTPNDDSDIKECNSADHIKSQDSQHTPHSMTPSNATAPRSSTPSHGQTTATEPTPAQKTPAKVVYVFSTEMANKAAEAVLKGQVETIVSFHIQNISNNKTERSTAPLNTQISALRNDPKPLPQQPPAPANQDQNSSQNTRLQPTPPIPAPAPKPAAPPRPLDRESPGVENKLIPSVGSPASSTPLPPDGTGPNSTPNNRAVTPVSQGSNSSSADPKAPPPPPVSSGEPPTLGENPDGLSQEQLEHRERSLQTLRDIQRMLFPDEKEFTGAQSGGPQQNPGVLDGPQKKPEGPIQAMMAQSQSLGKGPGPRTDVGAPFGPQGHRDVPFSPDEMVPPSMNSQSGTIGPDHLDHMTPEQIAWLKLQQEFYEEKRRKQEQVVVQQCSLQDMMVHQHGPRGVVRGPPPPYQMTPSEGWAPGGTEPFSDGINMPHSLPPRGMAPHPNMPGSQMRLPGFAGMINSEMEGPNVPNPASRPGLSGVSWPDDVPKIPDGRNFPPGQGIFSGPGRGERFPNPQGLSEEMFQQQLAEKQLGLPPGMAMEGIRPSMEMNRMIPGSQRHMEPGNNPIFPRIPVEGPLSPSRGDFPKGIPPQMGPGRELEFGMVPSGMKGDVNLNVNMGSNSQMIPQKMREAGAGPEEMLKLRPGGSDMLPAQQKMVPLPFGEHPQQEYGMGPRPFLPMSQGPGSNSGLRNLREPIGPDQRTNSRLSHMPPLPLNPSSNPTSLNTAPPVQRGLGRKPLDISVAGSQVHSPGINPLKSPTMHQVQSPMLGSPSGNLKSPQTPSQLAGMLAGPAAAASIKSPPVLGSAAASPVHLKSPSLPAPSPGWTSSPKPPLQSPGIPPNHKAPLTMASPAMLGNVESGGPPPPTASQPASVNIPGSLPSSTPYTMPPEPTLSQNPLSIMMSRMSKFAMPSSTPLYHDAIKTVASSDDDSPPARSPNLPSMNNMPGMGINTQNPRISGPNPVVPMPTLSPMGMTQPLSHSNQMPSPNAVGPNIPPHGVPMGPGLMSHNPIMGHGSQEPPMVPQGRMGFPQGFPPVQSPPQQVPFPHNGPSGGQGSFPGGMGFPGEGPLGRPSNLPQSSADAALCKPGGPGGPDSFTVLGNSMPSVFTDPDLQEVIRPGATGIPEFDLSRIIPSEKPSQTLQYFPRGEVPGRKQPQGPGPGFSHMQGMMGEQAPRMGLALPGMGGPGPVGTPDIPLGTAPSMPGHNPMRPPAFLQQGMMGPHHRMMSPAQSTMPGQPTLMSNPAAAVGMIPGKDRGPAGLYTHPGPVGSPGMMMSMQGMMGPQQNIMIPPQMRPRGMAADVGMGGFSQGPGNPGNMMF
# method.notes: Inhibition of full length beta-catenin (unknown origin)/FAM labeled BCL9 (350 to 375 residues) (unknown origin) protein-protein interaction by competitive FP assay
# Type: protein-complex assay
Would you please state pIC50, meaning minus log10 of the concentration in mol/L, as a bare number?

INSERT INTO results (smiles_code, quantity_kind, observed) VALUES
  ('COc1ccc(-c2oc3c(-c4ccccc4)c(OC)cc(OC)c3c(=O)c2OC)cc1OC', 'pIC50', 4.92),
  ('COc1ccc(-c2oc3c(C4=CCNCC4)c(OC)cc(OC)c3c(=O)c2OC)cc1OC', 'pIC50', 5.05),
  ('COc1ccc(-c2oc3c(-c4ccc(C(F)(F)F)cc4)c(OC)cc(OC)c3c(=O)c2OC)cc1OC', 'pIC50', 5.06);

Please provide the recorded pIC50 for COc1ccc(-c2oc3c(-c4ccc(F)c(F)c4)c(OC)cc(OC)c3c(=O)c2OC)cc1OC , tested on beta-catenin-B-cell lymphoma 9 protein complex (Homo sapiens).
5.24

Item: COc1ccc(-c2oc3c(Nc4ccccc4)c(OC)cc(OC)c3c(=O)c2OC)cc1OC Test system: beta-catenin-B-cell lymphoma 9 protein complex (Homo sapiens) Read-out: pIC50 Value: ?
4.79

// fetch beta-catenin-B-cell lymphoma 9 protein complex (Homo sapiens) pIC50 for COc1ccc(-c2oc3c(-c4ccc(C)cc4)c(OC)cc(OC)c3c(=O)c2OC)cc1OC
5.28

Query pIC50 on beta-catenin-B-cell lymphoma 9 protein complex (Homo sapiens) for COc1ccc(-c2c(OC)cc(OC)c3c(=O)c(OC)c(-c4ccc(OC)c(OC)c4)oc23)cc1
4.76

Form field: pIC50 recorded for O=c1c(O)c(-c2ccc(O)c(O)c2)oc2c(-c3ccc(F)c(F)c3)c(O)cc(O)c12 with beta-catenin-B-cell lymphoma 9 protein complex (Homo sapiens) (enter value)
5.50

Form field - read-out: pIC50; system: beta-catenin-B-cell lymphoma 9 protein complex (Homo sapiens); submitted item: COC(=O)c1ccc(-c2c(OC)cc(OC)c3c(=O)c(OC)c(-c4ccc(OC)c(OC)c4)oc23)cc1
5.12

Form field - read-out: pIC50; system: beta-catenin-B-cell lymphoma 9 protein complex (Homo sapiens); submitted item: O=c1c(O)c(-c2ccc(O)c(O)c2)oc2c(-c3ccccc3)c(O)cc(O)c12
5.42

These data points were gathered from ChEMBL document CHEMBL5356978.
